assay: folding stability dG unfold (combined trypsin and chymotrypsin); higher = more stable
The label depends only on folding stability dG unfold: MET if it is at least 2 kcal/mol, NOT MET if it is smaller.

>  <CHAIN_SEQUENCE>
SAGGSAGGSAGGPKEIPIKIKIYPPNGRKRERPVPLKSEEQALDQLQEAMPPGWFIEIWSAGGSAGGSAGGS [r10_145_TrROS]

>  <CLASS_LABEL>
NOT MET

$$$$
>  <CHAIN_SEQUENCE>
KYELVATLSRPNPETGTVVNVSVYRFEDGSYRVLVDVSTFYRTPDGSLRTSSSRAVFLVPEDVDPRELVESS [r1_243_TrMRF]

>  <CLASS_LABEL>
MET

$$$$
>  <CHAIN_SEQUENCE>
SAMKVYKAKVTIVDEEGNLLDEIELEFETEEELKEKVLEELGVSEEEIVEIELSPEVSEEEFEKKLKLESAG [r14_852_JUSTAS]

>  <CLASS_LABEL>
NOT MET

$$$$
>  <CHAIN_SEQUENCE>
SAGGSAGGSAMLTKITITFEKPGTDETFTKPIDVPPDNPEEAIKAIKEELKKKGYKVKSVILSAGGSAGGSA [r18_3_JUSTAS]

>  <CLASS_LABEL>
NOT MET

$$$$

Evaluate SAGGSASTTPIKFPNGFEVTKIEEGKGLVYIKYSPENPEILEKLGVEALETNENEVIVPREAIEKKSAGGSA [r15_984_JUSTAS] : folding stability dG unfold at minimum 2 kcal/mol?
NOT MET
